Target: T1, plasma-derived human activated protein C (APC) (UniProt P04070 43-461)
T1 chain: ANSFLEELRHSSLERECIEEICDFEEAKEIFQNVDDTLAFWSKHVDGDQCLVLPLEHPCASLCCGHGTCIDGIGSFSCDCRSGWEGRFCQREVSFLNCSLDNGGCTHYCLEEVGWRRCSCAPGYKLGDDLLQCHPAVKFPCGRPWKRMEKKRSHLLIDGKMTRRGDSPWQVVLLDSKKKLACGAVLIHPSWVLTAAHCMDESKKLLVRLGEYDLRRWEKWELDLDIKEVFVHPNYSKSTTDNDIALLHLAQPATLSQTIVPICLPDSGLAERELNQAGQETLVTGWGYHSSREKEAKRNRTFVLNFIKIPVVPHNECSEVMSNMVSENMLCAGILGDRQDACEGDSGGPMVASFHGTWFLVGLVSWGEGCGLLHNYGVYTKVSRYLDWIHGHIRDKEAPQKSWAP
Experiment: SPR; head prints nM; kd/ka gives M
Please respond with reported Kd for every item in the list.
Please give a number only; it is taken to be in nM.

Item TPP-29857 (antibody, V domains shown) VH: EVQLVESGGGLVQPGGSLRLSCAASGFTFSNYYMNWVRQAPGKGLEWVSYISSSSSTIYYADSVKGRFTISRDDSKNSLYLQMNSLKTEDTAVYYCAREGDYFDYWGQGTLVTVSS VL: EIVLTQSPGTLSLSPGERATLSCRASQSVSSFGATFMHWYQQKPGQPPKLLIYLASNRASGVPDRFSGSGSGTDFTLKISRVEAEDVGVYYCQQNNEDPWTFGQGTKLEIKR has what recorded Kd?
13.3

Follow-up entry: TPP-29863 (antibody, V domains shown) VH: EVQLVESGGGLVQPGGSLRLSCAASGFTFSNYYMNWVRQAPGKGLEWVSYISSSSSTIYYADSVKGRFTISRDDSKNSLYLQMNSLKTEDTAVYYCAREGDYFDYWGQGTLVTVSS VL: EIVLTQSPGTLSLSPGERATLSCRASQRVSSFGATFMHWYQQKPGQPPKLLIYLASNRASGVPDRFSGSGSGTDFTLKISRVEAEDVGVYYCQQNNEDPYTFGQGTKLEIKR
23.8

Follow-up entry: TPP-26870 (antibody, V domains shown) VH: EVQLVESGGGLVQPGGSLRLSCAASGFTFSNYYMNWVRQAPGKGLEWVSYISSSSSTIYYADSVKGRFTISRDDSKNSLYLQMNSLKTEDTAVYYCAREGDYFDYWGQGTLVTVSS VL: EIVLTQSPGTLSLSPGERATLSCRASQSVSSFGATFMHWYQQKPGQPPKLLIYLASNRASGVPDRFSGSGSGTDFTLKISRVEAEDVGVYYCQQNNEDPYTFGQGTKLEIKR
40

Follow-up entry: TPP-29844 (antibody, V domains shown) VH: EVQLVESGGGLVQPGGSLRLSCAASGFTFSIYYMNWVRQAPGKGLEWVSYISSSSSTIYYADSVKGRFTISRDDSKNSLYLQMNSLKTEDTAVYYCAREGDYFDYWGQGTLVTVSS VL: EIVLTQSPGTLSLSPGERATLSCRASQSVSSFGATFMHWYQQKPGQPPKLLIYLASNRASGVPDRFSGSGSGTDFTLKISRVEAEDVGVYYCQQNNEDPYTFGQGTKLEIKR
10.1

Follow-up entry: TPP-29853 (antibody, V domains shown) VH: EVQLVESGGGLVQPGGSLRLSCAASGFTFSNYYMNWVRQAPGKGLEWVSYISSSSSTIYYADSVKGRFTISRDDSKNSLYLQMNSLKTEDTAVYYCAREGDYMDYWGQGTLVTVSS VL: EIVLTQSPGTLSLSPGERATLSCRASQSVSSFGATFMHWYQQKPGQPPKLLIYLASNRASGVPDRFSGSGSGTDFTLKISRVEAEDVGVYYCQQNNEDPYTFGQGTKLEIKR
23.3

Follow-up entry: TPP-29866 (antibody, V domains shown) VH: EVQLVESGGGLVQPGGSLRLSCAASGFTFSNYYMNWVRQAPGKGLEWVSYISSSSSPIYYADSVKGRFTISRDDSKNSLYLQMNSLKTEDTAVYYCAREGDYFDYWGQGTLVTVSS VL: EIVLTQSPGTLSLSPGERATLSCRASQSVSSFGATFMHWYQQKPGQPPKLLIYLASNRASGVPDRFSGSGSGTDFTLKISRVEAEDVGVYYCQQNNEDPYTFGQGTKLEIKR
22.2

Follow-up entry: TPP-29849 (antibody, V domains shown) VH: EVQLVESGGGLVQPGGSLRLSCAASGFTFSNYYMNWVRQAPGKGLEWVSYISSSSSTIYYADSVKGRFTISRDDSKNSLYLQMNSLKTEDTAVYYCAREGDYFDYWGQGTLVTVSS VL: EIVLTQSPGTLSLSPGERATLSCRASQSVSSFGATFMHWYQQKPGQPPKLLIYLAWNRASGVPDRFSGSGSGTDFTLKISRVEAEDVGVYYCQQNNEDPYTFGQGTKLEIKR
10.2

Follow-up entry: TPP-29843 (antibody, V domains shown) VH: EVQLVESGGGLVQPGGSLRLSCAASGFTFSNYYMNWVRQAPGKGLEWVSYISTSSSTIYYADSVKGRFTISRDDSKNSLYLQMNSLKTEDTAVYYCAREGDYFDYWGQGTLVTVSS VL: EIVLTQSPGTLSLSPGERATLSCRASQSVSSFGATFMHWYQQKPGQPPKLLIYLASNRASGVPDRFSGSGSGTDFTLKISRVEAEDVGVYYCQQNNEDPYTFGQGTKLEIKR
22.3

Follow-up entry: TPP-29845 (antibody, V domains shown) VH: EVQLVESGGGLVQPGGSLRLSCAASGFTFSNFYMNWVRQAPGKGLEWVSYISSSSSTIYYADSVKGRFTISRDDSKNSLYLQMNSLKTEDTAVYYCAREGDYFDYWGQGTLVTVSS VL: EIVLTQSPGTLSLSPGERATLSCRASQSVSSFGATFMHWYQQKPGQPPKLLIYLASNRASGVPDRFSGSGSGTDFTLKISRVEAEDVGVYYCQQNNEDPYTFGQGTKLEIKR
10.7
